Biological target: benzodiazepine receptor
Test: In vitro affinity for the benzodiazepine receptor on rat cortex membrane
Assay type: binding
Kindly state pIC50 for each of the entries shown.
Remember, pIC50 is on a log scale: it is -log10 of the molar concentration.

Need pIC50 of "COC(=O)c1cc2c(COCc3ccc(F)cc3)c[nH]c2cn1" , thanks. 7.12

Which pIC50 is listed for "COC(=O)c1cc2c(COCc3ccccc3)c[nH]c2cn1" ? 6.12

Please look up its pIC50: "COC(=O)c1cc2c(COCC=Cc3ccccc3)c[nH]c2cn1" 6.82

What does the data say about its pIC50? Entry: "COC(=O)c1cc2c(COCc3ccc([N+](=O)[O-])cc3)c[nH]c2cn1" 6.52

// query pIC50 value for entry "COC(=O)c1cc2c(COCc3cccc(F)c3)c[nH]c2cn1" 7.00

Which pIC50 value belongs to "COC(=O)c1cc2c(COCc3ccccc3F)c[nH]c2cn1" ? 7.19

Find the recorded pIC50 belonging to "O=C(Nc1ccccc1)c1cc2cc[nH]c2cn1" and report it. 5.15

For the compound shown here, "O=C(Nc1ccccc1C(=O)O)c1cc2cc[nH]c2cn1" , give the reported pIC50. 6.52

State the recorded pIC50 for this entry: "COC(=O)c1cc2c(COCc3cccc([N+](=O)[O-])c3)c[nH]c2cn1" 5.89

I am curious: what pIC50 value has been reported for "COC(=O)c1cc2c(COCc3cccc(OC)c3)c[nH]c2cn1" ? 5.00

====

Molecular target: benzodiazepine receptor
Assay: In vitro affinity for the benzodiazepine receptor on rat cortex membrane
Type: binding
Can you tell me log10 IC50 for the items I'm about to list?
Please keep in mind that the values are log10 of IC50 expressed in nM.

I'd like to know its log10 IC50. The molecule in question is "O=C(O)c1cccc(NC(=O)c2cc3cc[nH]c3cn2)c1" 3.74

Fill blank: measured log10 IC50 of the molecule "O=C(O)c1ccc(NC(=O)c2cc3cc[nH]c3cn2)cc1" is ____. 3.36

Entry "COC(=O)c1cc2c(COCc3ccccc3[N+](=O)[O-])c[nH]c2cn1" has what log10 IC50? 3.08

Report log10 IC50 for "COC(=O)c1cc2c(COCCc3ccccc3)c[nH]c2cn1" please. 0.90

So what does the record say about log10 IC50 for "COCc1c[nH]c2cnc(C(=O)OC)cc12" ? 3.18

Just for reference, patent US5484793A is where these values come from.
